Value source: paper PMC7946963

# TARGET ENTITY: LC3A (UniProt Q9H492 1-121)
# TEST PROTOCOL: FP
pKd: −log10 of the molar value. Square brackets hold non-standard residues; d marks the D form. Ends that are not written are not given here. pS = N[C@@H](COP(=O)(O)O)C(=O)O
REPORTED METRIC: pKd

>  <BINDER>
TASDDSDIVTLEPPK (also: N-terminal FITC only in fluorescence polarisation assay form) [CCPG1 FIR2 synthetic peptide (residues 99–113)]

>  <RECORDED NUMBER>
4.43

$$$$
>  <BINDER>
TASDD[pS]DIVTLEPPK (also: N-terminal FITC in fluorescence polarisation assay only) [phospho-CCPG1 FIR2 synthetic peptide (p-CCPG1 FIR2)]

>  <RECORDED NUMBER>
4.82

$$$$
